Test system: HEp-2
Experiment: Growth inhibition of human Hep2 cells at 10 uM by sulforhodamine B assay
Type: functional
Details: read-out: GI
Kindly supply the reported inhibition of growth at 10 µM values for the records listed here.
Unit % implied. Number only.

Could you tell me which inhibition of growth at 10 µM is on file for "O=C(Nc1nc2ccc([N+](=O)[O-])cc2s1)c1cccnc1Nc1cc(F)c(F)c(F)c1" ?
0

Could you tell me which inhibition of growth at 10 µM is on file for "COc1ccc(Nc2ncccc2-c2nc3n(n2)S(=O)(=O)c2ccccc2N3C)cc1" ?
13

Could you tell me which inhibition of growth at 10 µM is on file for "COc1ccc2nc(NC(=O)c3cccnc3Nc3ccc(Cl)cc3)sc2c1" ?
13

Could you tell me which inhibition of growth at 10 µM is on file for "COc1ccc(Nc2ncccc2-c2nc3n(n2)S(=O)(=O)c2ccccc2N3c2ccccc2)cc1" ?
10

Could you tell me which inhibition of growth at 10 µM is on file for "COc1ccc(Nc2ncccc2C(=O)Nc2nc3ccc([N+](=O)[O-])cc3s2)cc1" ?
5

Could you tell me which inhibition of growth at 10 µM is on file for "CN1c2ccccc2S(=O)(=O)n2nc(-c3cccnc3Nc3ccc(Cl)cc3)nc21" ?
0

Could you tell me which inhibition of growth at 10 µM is on file for "COc1ccc2nc(NC(=O)c3cccnc3Nc3ccc(F)cc3)sc2c1" ?
32

Could you tell me which inhibition of growth at 10 µM is on file for "O=C(Nc1nc2ccc([N+](=O)[O-])cc2s1)c1cccnc1Nc1ccc(Cl)cc1" ?
69

Could you tell me which inhibition of growth at 10 µM is on file for "COc1ccc(Nc2ncccc2C(=O)Nc2nc3ccc(OC)cc3s2)cc1" ?
0

Could you tell me which inhibition of growth at 10 µM is on file for "COc1ccc2nc(NC(=O)c3cccnc3Nc3ccccc3)sc2c1" ?
33

* * *

System: HL-60
Experiment: Induction of apoptosis in human HL60 cells assessed as increase of reactive oxygen species level at 1 uM after 24 hrs using DCFH-DA fluorescent dye based flow cytometric analysis relative to control
Assay type: functional
Calls of active or inactive are those of the source. No cut-off for these calls is given here.
property measured: Activity

Example molecules with recorded Activity:
INSERT INTO assay_data (entry_smiles, result) VALUES
  ('O=C(Nc1nc2ccc([N+](=O)[O-])cc2s1)c1cccnc1Nc1cc(F)c(F)c(F)c1', 'inactive'),
  ('CN1c2ccccc2S(=O)(=O)n2nc(-c3cccnc3Nc3ccc(Cl)cc3Cl)nc21', 'inactive'),
  ('COc1ccc(Nc2ncccc2C(=O)Nc2nc3ccc([N+](=O)[O-])cc3s2)cc1', '44%'),
  ('O=C(Nc1nc2ccc([N+](=O)[O-])cc2s1)c1cccnc1Nc1ccccc1', '31%'),
  ('O=C(Nc1nc2ccc([N+](=O)[O-])cc2s1)c1cccnc1Nc1ccc(F)cc1', '16%');

Could you tell me which Activity is on file for "O=C(Nc1nc2ccc([N+](=O)[O-])cc2s1)c1cccnc1Nc1ccc(Cl)cc1Cl" ?
inactive

* * *

Kindly supply the reported inhibition of growth at 10 µM values for the records listed here.
Test system: HEp-2
Assay: Growth inhibition of human Hep2 cells at 10 uM by sulforhodamine B assay
Type: functional
Details: read-out: GI
Unit % implied. Number only.

Lab request: please report inhibition of growth at 10 µM under test system HEp-2 for "O=S1(=O)c2ccccc2N(c2ccccc2)c2nc(-c3cccnc3Nc3ccc(Cl)cc3Cl)nn21"
25

Lab request: please report inhibition of growth at 10 µM under test system HEp-2 for "O=S1(=O)c2ccccc2N(c2ccccc2)c2nc(-c3cccnc3Nc3ccc(Cl)cc3)nn21"
57

Lab request: please report inhibition of growth at 10 µM under test system HEp-2 for "CN1c2ccccc2S(=O)(=O)n2nc(-c3cccnc3Nc3ccc(Cl)cc3Cl)nc21"
0

Lab request: please report inhibition of growth at 10 µM under test system HEp-2 for "O=S1(=O)c2ccccc2N(c2ccccc2)c2nc(-c3cccnc3Nc3ccccc3)nn21"
0

Lab request: please report inhibition of growth at 10 µM under test system HEp-2 for "O=C(Nc1nc2ccc([N+](=O)[O-])cc2s1)c1cccnc1Nc1ccc(F)c(Cl)c1"
61

Lab request: please report inhibition of growth at 10 µM under test system HEp-2 for "O=C(Nc1nc2ccc([N+](=O)[O-])cc2s1)c1cccnc1Nc1ccccc1"
26

Lab request: please report inhibition of growth at 10 µM under test system HEp-2 for "COc1ccc2nc(NC(=O)c3cccnc3Nc3cc(F)c(F)c(F)c3)sc2c1"
7

Lab request: please report inhibition of growth at 10 µM under test system HEp-2 for "COc1ccc2nc(NC(=O)c3cccnc3Nc3ccc(Cl)cc3Cl)sc2c1"
17

Lab request: please report inhibition of growth at 10 µM under test system HEp-2 for "O=C(Nc1nc2ccc([N+](=O)[O-])cc2s1)c1cccnc1Nc1ccc(Cl)cc1Cl"
14

Lab request: please report inhibition of growth at 10 µM under test system HEp-2 for "O=C(Nc1nc2ccc([N+](=O)[O-])cc2s1)c1cccnc1Nc1ccc(F)cc1"
52

Lab request: please report inhibition of growth at 10 µM under test system HEp-2 for "CN1c2ccccc2S(=O)(=O)n2nc(-c3cccnc3Nc3ccccc3)nc21"
0

Lab request: please report inhibition of growth at 10 µM under test system HEp-2 for "CN1c2ccccc2S(=O)(=O)n2nc(-c3cccnc3Nc3cc(F)c(F)c(F)c3)nc21"
0

Lab request: please report inhibition of growth at 10 µM under test system HEp-2 for "O=S1(=O)c2ccccc2N(c2ccccc2)c2nc(-c3cccnc3Nc3cc(F)c(F)c(F)c3)nn21"
52
